What pKd was measured for each of the following?
- test.target: SARS-CoV-2 nucleocapsid (N) protein, recombinant, residues 1-419 (SARS-CoV-2, UniProt P0DTC9 1-419)
Give bare numbers, as −log10 of the molar value.

>  <binder>
Sso.E2 (rcSso7d binder against SARS-CoV-2 N protein) (designed binder) MATVKFTYQGEEKQVDISKIKNVGRWGQIIDFDYDEGGGAIGIGAVSEKDAPKELLQMLEKQ

>  <measured.value>
8.38

$$$$

We next turn to a different binder, shown below.
## Task Return reported pKd; argument: Sso.E1 (rcSso7d binder against SARS-CoV-2 N protein) (designed binder) MATVKFTYQGEEKQVDISKIKIVRRGGQWISFWYDEGGGAYGAGYVSEKDAPKELLQMLEKQ
## Result 8.49
